assay: Solubility; conditions: pyridine

{"Smiles": "CO[C@@H]1[C@H](O)[C@@H](O)[C@@H](O[C@H]2[C@H](Oc3cccc4c(=O)c5c(N)c(=O)c6ccc(C)c7c(=O)oc(c-5c67)c34)O[C@H](C)[C@H](O)[C@@H]2O)O[C@@H]1C", "solubility in pyridine": "soluble"}
{"Smiles": "Cc1ccc2c(=O)c(N)c3c(=O)c4cccc(O[C@@H]5O[C@H](C)[C@H](O)[C@H](O)[C@H]5O[C@H]5O[C@H](C)[C@H](O)[C@H](O)[C@H]5O)c4c4oc(=O)c1c2c4-3", "solubility in pyridine": "soluble"}
{"Smiles": "CO[C@@H]1[C@@H](O)[C@@H](O[C@H]2[C@H](Oc3cccc4c(=O)c5c(N)c(=O)c6ccc(C)c7c(=O)oc(c-5c67)c34)O[C@H](C)[C@H](O)[C@@H]2O)O[C@H](C)[C@@H]1OC", "solubility in pyridine": "readily soluble"}
{"Smiles": "CO[C@@H]1[C@@H](O)[C@@H](O[C@H]2[C@H](Oc3cccc4c(=O)c5c(O)c(=O)c6ccc(C)c7c(=O)oc(c-5c67)c34)O[C@H](C)[C@H](O)[C@@H]2O)O[C@H](C)[C@@H]1OC", "solubility in pyridine": "readily soluble"}
{"Smiles": "CO[C@H]1[C@@H](O)[C@@H](C)O[C@H](O[C@H]2[C@H](Oc3cccc4c(=O)c5c(N)c(=O)c6ccc(C)c7c(=O)oc(c-5c67)c34)O[C@H](C)[C@H](O)[C@@H]2O)[C@@H]1O", "solubility in pyridine": "soluble"}
